# Experimental system: VLA-4 (Homo sapiens, UniProt P05556+P13612)
# Sequence (P13612 34-1032): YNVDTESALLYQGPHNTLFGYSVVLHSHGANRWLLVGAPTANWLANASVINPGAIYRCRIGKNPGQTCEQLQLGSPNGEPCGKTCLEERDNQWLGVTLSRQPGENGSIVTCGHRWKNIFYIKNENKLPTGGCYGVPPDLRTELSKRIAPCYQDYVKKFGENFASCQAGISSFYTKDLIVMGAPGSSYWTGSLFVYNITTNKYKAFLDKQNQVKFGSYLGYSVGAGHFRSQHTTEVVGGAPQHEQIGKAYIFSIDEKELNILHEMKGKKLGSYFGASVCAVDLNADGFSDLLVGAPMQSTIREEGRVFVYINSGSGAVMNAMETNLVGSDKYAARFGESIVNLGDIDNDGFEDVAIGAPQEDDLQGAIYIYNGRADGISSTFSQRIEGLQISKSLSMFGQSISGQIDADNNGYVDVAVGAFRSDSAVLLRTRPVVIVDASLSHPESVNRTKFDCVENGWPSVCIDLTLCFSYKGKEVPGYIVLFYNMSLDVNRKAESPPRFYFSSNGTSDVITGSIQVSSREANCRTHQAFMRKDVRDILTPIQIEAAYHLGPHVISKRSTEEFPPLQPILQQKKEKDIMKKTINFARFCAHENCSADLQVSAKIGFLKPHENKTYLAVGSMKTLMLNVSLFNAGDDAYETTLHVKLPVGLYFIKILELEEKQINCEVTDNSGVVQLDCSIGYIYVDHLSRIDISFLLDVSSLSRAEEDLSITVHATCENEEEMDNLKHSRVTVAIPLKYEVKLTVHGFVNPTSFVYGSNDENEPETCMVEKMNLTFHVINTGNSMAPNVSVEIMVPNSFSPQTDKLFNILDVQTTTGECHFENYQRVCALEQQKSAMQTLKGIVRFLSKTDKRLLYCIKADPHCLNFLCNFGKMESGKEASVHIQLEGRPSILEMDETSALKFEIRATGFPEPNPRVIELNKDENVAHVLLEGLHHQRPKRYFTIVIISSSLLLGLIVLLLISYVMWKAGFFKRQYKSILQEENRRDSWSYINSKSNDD
# Sequence (P05556 21-798): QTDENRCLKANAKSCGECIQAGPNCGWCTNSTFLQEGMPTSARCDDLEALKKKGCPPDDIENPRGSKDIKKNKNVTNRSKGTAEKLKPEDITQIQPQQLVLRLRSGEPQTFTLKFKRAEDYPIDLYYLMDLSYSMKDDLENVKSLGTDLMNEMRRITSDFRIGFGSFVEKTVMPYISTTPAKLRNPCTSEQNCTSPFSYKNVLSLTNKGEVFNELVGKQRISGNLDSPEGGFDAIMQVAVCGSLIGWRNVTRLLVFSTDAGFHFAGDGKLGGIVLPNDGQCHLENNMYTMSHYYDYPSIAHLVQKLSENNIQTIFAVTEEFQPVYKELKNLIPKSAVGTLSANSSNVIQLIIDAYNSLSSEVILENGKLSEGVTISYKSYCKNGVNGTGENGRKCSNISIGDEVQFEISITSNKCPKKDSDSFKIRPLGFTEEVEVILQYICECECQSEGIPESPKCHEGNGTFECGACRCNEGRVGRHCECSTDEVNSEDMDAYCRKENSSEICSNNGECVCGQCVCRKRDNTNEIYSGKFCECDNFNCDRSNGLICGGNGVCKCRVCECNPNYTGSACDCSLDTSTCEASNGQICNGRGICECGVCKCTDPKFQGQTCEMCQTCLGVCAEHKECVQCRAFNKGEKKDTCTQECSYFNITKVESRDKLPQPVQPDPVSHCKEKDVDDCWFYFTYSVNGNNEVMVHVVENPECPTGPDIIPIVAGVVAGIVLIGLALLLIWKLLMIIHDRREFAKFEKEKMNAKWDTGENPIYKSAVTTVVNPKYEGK
# Assay notes: cell-based
# Format: cell-based
# Design: host or cells: Jurkat (human T lymphoblastic line)
Numbered stars: 1 amine (or outer) side, 2 acyl side, 3 side chain; on linkers, the order of the positions; unused ones are H or OH. Square brackets hold non-standard residues; d marks the D form. Peptide text beside a SMILES is read from it. * marks the point of attachment. Benzenesulfonyl = O=S(=O)(c1ccccc1)*; Nicotinoyl = O=C(c1cccnc1)*; CO = O=C([*:1])[*:2]; NHPh = c1ccc(N*)cc1
Attribute measured: RELATIVE POTENCY (relative peptide inhibition of VLA-4 binding CS-1)
In your answer, state the number alone without any accompanying words.

// worked examples, RELATIVE POTENCY (relative peptide inhibition of VLA-4 binding CS-1) included
INSERT INTO measurements (compound, experimental_system, reported_measurement) VALUES
  ('CC(C)C[C@H](NC(=O)c1cccnc1)C(=O)N[C@@H](CC(=O)O)C(=O)N[C@@H](Cc1ccccc1)C(=O)N1CCC[C@@H]1C(N)=O [X L D F p pyridine-3-carbonyl amide] (Nicotinoyl-LDF[dP]-NH2)', 'VLA-4 (Homo sapiens, UniProt P05556+P13612)', 201),
  ('CCC(C)CC(=O)N[C@@H](CC(C)C)C(=O)N[C@@H](CC(=O)O)C(=O)N[C@H](C(=O)N1CCC[C@@H]1C(N)=O)C(C)C (stereo partly drawn) [X L D V p 3-methylvaleroyl amide]', 'VLA-4 (Homo sapiens, UniProt P05556+P13612)', 3),
  ('CC(C)C[C@H](NC(=O)Nc1ccccc1)C(=O)N[C@@H](CC(=O)O)C(=O)N[C@@H](Cc1ccccc1)C(=O)N1CCC[C@@H]1C(N)=O [X L D F p anilinocarbonyl amide] ({NHPh-CO}-LDF[dP]-NH2)', 'VLA-4 (Homo sapiens, UniProt P05556+P13612)', 227),
  ('CC(C)C[C@H](NS(=O)(=O)c1ccccc1)C(=O)N[C@@H](CC(=O)O)C(=O)N[C@@H](Cc1ccccc1)C(=O)N1CCC[C@@H]1C(N)=O [X L D F p phenylsulfonyl amide] (Benzenesulfonyl-LDF[dP]-NH2)', 'VLA-4 (Homo sapiens, UniProt P05556+P13612)', 0);

Pending compound:
Entry under review: CC(C)C[C@H](NC(=O)C(C)(C)C)C(=O)N[C@@H](CC(=O)O)C(=O)N[C@H](C(=O)N1CCCC1C(N)=O)C(C)C (single isomer, unassigned) [X L D V P pivaloyl amide] . Reported RELATIVE POTENCY (relative peptide inhibition of VLA-4 binding CS-1)? 20

* * *

# Experimental system: VLA-4 (Homo sapiens, UniProt P05556+P13612)
# Assay notes: cell-based
# Format: cell-based
# Parameters: host or cells: Jurkat (human T lymphoblastic line)
# Experimental context: normalized IC50 relative to standard peptide of SEQ ID NO:3 (=1); about one-tenth or less of the standard is assigned zero
Peptide text beside a SMILES is read from it. * marks the point of attachment. NHPhenethyl = c1ccc(CCN*)cc1; Morpholide = C1CN(*)CCO1; PhAc = O=C(Cc1ccccc1)*
Attribute measured: RELATIVE POTENCY (relative peptide inhibition of VLA-4 binding CS-1)
In your answer, state the number alone without any accompanying words.

// worked examples, RELATIVE POTENCY (relative peptide inhibition of VLA-4 binding CS-1) included
INSERT INTO measurements (compound, reported_measurement) VALUES
  ('CC(C)C[C@H](NC(=O)Cc1ccccc1)C(=O)N[C@@H](CC(=O)O)C(=O)N[C@@H](Cc1ccccc1)C(=O)N1CCCC1CO (stereo partly drawn)', 184),
  ('CC(C)C[C@H](NC(=O)Cc1ccccc1)C(=O)N[C@@H](CC(=O)O)C(=O)NC(c1ccccc1)c1ccccc1 [X L D Z phenylacetyl benzylhydrylamide]', 3),
  ('CC(C)C[C@H](NC(=O)Cc1ccccc1)C(=O)N[C@@H](CC(=O)O)C(=O)NCCc1ccccc1 [X L D Z phenylacetyl phenethylamide] (PhAc-Leu-Asp-NHPhenethyl)', 19),
  ('CC(C)C[C@H](NC(=O)Cc1ccccc1)C(=O)N[C@@H](CC(=O)O)C(=O)NC1CCN(C2CCCCC2)C1=O (stereo partly drawn)', 7),
  ('CC(C)C[C@H](NC(=O)Cc1ccccc1)C(=O)N[C@@H](CC(=O)O)C(=O)NCC(=O)N1CCOCC1 [X L D G Z phenylacetyl morpholinamide] (PhAc-Leu-Asp-Gly-Morpholide)', 9),
  ('CC(C)C[C@H](NC(=O)Cc1ccccc1)C(=O)N[C@@H](CC(=O)O)C(=O)NC1Cc2ccccc2N(CCN2CCOCC2)C1=O (stereo partly drawn)', 20);

Provide the documented RELATIVE POTENCY (relative peptide inhibition of VLA-4 binding CS-1) with VLA-4 (Homo sapiens, UniProt P05556+P13612) as the system for CC(C)C[C@H](NC(=O)Cc1ccccc1)C(=O)N[C@@H](CC(=O)O)C(=O)N[C@@H]1CCCCNC1=O 17

Provide the documented RELATIVE POTENCY (relative peptide inhibition of VLA-4 binding CS-1) with VLA-4 (Homo sapiens, UniProt P05556+P13612) as the system for CC(C)C[C@H](NC(=O)Cc1ccccc1)C(=O)N[C@@H](CC(=O)O)C(=O)N[C@@H](Cc1ccccc1)C(=O)N1CCC(O)CC1 603

Provide the documented RELATIVE POTENCY (relative peptide inhibition of VLA-4 binding CS-1) with VLA-4 (Homo sapiens, UniProt P05556+P13612) as the system for CC(C)C[C@H](NC(=O)Cc1ccccc1)C(=O)N[C@@H](CC(=O)O)C(=O)NN(Cc1ccccc1)Cc1ccccc1 0
